B1: TPR 5TU (parent)
chain: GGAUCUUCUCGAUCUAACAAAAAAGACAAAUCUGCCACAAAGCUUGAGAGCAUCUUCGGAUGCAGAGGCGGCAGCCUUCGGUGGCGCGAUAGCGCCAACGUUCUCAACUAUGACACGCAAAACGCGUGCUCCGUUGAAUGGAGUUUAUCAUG

Variants of: B1
Assay: polymerase ribozyme fitness, log enrichment relative to wild type (log ratio); higher = more active; in vitro selection for triplet polymerase activity
This sample holds only a part of the variants without activity.
test readout: polymerase ribozyme fitness (log ratio)

mut	test readout	censoring operator	observed
U6A G34A C69U A73G U77A C79A C87A C96U C105A A107U G136A U139A	polymerase ribozyme fitness (log ratio)	≤	-4.2
A3C U4A	polymerase ribozyme fitness (log ratio)	=	0.257
C5U U15G A39C A66U C95U	polymerase ribozyme fitness (log ratio)	=	-4.2
C27U A39C G83A	polymerase ribozyme fitness (log ratio)	≤	-4.2
C10U C57U C96U	polymerase ribozyme fitness (log ratio)	=	-3.83
A47C U56A A60G C85U C96U A150U	polymerase ribozyme fitness (log ratio)	=	-0.791
G46C U61G U78A C93A	polymerase ribozyme fitness (log ratio)	≤	-4.2
G58A G59U G62C G67U A73U C96A U130G A138U A150G	polymerase ribozyme fitness (log ratio)	≤	-4.2
G58A C85U A115U U144G	polymerase ribozyme fitness (log ratio)	=	-1.46
C5U G84A	polymerase ribozyme fitness (log ratio)	=	0.439
A22U G42C G80A A91G C95G A98U	polymerase ribozyme fitness (log ratio)	≤	-4.2

Sourced from the RNAGym collection of RNA variant scans (doi:10.1073/pnas.2313332121)
